// data source = paper PMC8299219

target: SARS-CoV-2 S ectodomain trimer, prefusion-stabilized, 2P variant (Wrapp et al., 2020) (SARS-CoV-2, Wuhan-Hu-1, UniProt P0DTC2, stabilised)
readout.label: binding result

[[record]]
binder = "C15C12 (antibody, V domains shown) VH: EVQLLESGGGLVQPGGSLRLSCAASAFTFTNYDMNWVRQAPGKGLEWVSTISGSGDITYYADFVKGRFTISRDNSKNTLNLQMNSLRADDTAVYYCAKDFARRGYNGYEEKFISMFGGVIADYGMDVWGQGTTVTVSS VL: EIVLTQSPTTLSLSPGERVTLSCRASQSISSYLAWYQQKPGQAPRLLIYRASNRATGISARFSGSGSGTDFTLTISSLEPEDFAVYYCQQRSNWPLTFGGGTKVEIK"
reading = "binds"

[[record]]
binder = "C89A10 (antibody, V domains shown) VH: EVQLLESGGGLVQPGGSLRLSCAASGFIFSSYAMSWVRQAPGKGLEWVSVISGSGDITYYADSVKGRFTISRDNSKNTLYLQMNSLRAEDTAVYYCAKDIDEPTAMVESWGYWGQGTLVTVSS VL: QSALTQPRSVSGSPGQSVTISCTGTSSDVGGYNYVSWYQQHPGKAPKLMIYDVSKRPSGVPDRFSGSKSGNTASLTISGLQAEDEADYYCCSYAGSWVFGGGTKLTVL"
reading = "binds"

